- Test Protocol: xn = mol fraction of the nth substance listed
- Details: 298.15 K; 101 kPa; x1 = 0.8
Kind request: treat 0.5 mPa·s as inclusive, so viscosity at 0.5 mPa·s or higher is label 1, anything lower is label 0.

compound="C1CCOC1 + O=C1CCCO1" label_value="label 1"
compound="CC(C)=O + O" label_value="label 0"
compound="COc1ccccc1 + C1CCCCC1" label_value="label 1"
compound="C1CCOC1 + CC(C)CC(C)(C)C" label_value="label 0"

====

- Test Protocol: xn = mol fraction of the nth substance listed
- Details: 323.15 K; 101.33 kPa; x1 = 0.5
Experimental Endpoint: viscosity (mPa·s)

molecule="CC(C)C[P+](C)(CC(C)C)CC(C)C.Cc1ccc(S(=O)(=O)[O-])cc1 + O=S1(=O)CCCC1" reported_value=68.5
molecule="COc1ccccc1 + CC(C)CO" reported_value=0.736
molecule="COc1ccccc1 + CCCCCCCCO" reported_value=1.288
molecule="COc1ccccc1 + CCCCCCO" reported_value=0.966
molecule="COc1ccccc1 + CCC(C)O" reported_value=0.739
molecule="COc1ccccc1 + CCCCO" reported_value=0.75
molecule="COc1ccccc1 + CCCCCO" reported_value=0.853
molecule="COc1ccccc1 + CCCCCCCO" reported_value=1.161

====

- Test Protocol: xn = mol fraction of the nth substance listed
- Details: 313.15 K; 101.33 kPa; x1 = 0.6002
± gives the uncertainty stated by the source.
Experimental Endpoint: viscosity

compound="COc1ccccc1 + CCCCCCCCO" experimental_endpoint=viscosity reported_value="1.28 ± 0.031 mPa·s"
compound="COc1ccccc1 + CCCCCO" experimental_endpoint=viscosity reported_value="0.929 ± 0.03 mPa·s"
compound="COc1ccccc1 + CCCCCCO" experimental_endpoint=viscosity reported_value="1.049 ± 0.034 mPa·s"
compound="COc1ccccc1 + CCCCO" experimental_endpoint=viscosity reported_value="0.851 ± 0.028 mPa·s"

====

- Details: 313.15 K; 101.33 kPa
Experimental Endpoint: viscosity (mPa·s)

molecule=CC(C)=O experimental_endpoint=viscosity unit_spec=mPa·s reported_value=0.3089
molecule=C1CCOC1 experimental_endpoint=viscosity unit_spec=mPa·s reported_value=0.4066
molecule="CC1COC(=O)O1 (stereo not given)" experimental_endpoint=viscosity unit_spec=mPa·s reported_value=1.863
molecule=CC(C)CC(=O)O experimental_endpoint=viscosity unit_spec=mPa·s reported_value=1.672
molecule=CCOCCn1cc[n+](CCC#N)c1.O=S(=O)([N-]S(=O)(=O)C(F)(F)F)C(F)(F)F experimental_endpoint=viscosity unit_spec=mPa·s reported_value=146.2

====

- Test Protocol: xn = mol fraction of the nth substance listed
- Details: 323.15 K; 101.33 kPa; x1 = 0.9
Experimental Endpoint: viscosity (mPa·s)

compound="COc1ccccc1 + CCCCCCO" reported_value=0.699
compound="COc1ccccc1 + CCCCCO" reported_value=0.696
compound="COc1ccccc1 + CCCCCCCCO" reported_value=0.725
compound="COc1ccccc1 + CCC(C)O" reported_value=0.698
compound="COc1ccccc1 + CCCCO" reported_value=0.698

====

- Test Protocol: xn = mol fraction of the nth substance listed
- Details: 303.15 K; 101 kPa; x1 = 0.2
Overview of recorded viscosity for various compounds
Experimental Endpoint: viscosity (mPa·s)

compound="C1CCOC1 + O" unit_spec=mPa·s reported_value=1.504
compound="CC[N+](CC)(CC)CC.Cc1ccc(S(=O)(=O)[O-])cc1 + OCCOCCOCCOCCO" unit_spec=mPa·s reported_value=57.8
compound="CC[N+](CC)(CC)CC.Cc1ccc(S(=O)(=O)[O-])cc1 + OCCO" unit_spec=mPa·s reported_value=40.8
compound="CC[N+](CC)(CC)CC.Cc1ccc(S(=O)(=O)[O-])cc1 + CC(O)CO" unit_spec=mPa·s reported_value=51.2

From: the CheMixHub viscosity set
